System: Escherichia coli TOP10;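 note: peptides expressed intracellularly from a pBAD plasmid library in pooled LB shake-flask culture, induced with 0.3% L-arabinose, DNA abundance read by NGS, three biological replicates, DESeq2 with apeglm shrinkage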
assay_details: shrunken log2 fold change of peptide-encoding DNA abundance (4.5 h post-induction vs induction); higher = less antimicrobial activity (less host growth inhibition)
experimental_setup: time post-induction: 4.5 h; library: site-saturation at positions 5, 18, 19, 20

{"query_sequence": "RRIRPRPPRLPRPRPRPNQAPRP", "system": "Escherichia coli TOP10", "shrunken log2 fold change": -0.0302}
{"query_sequence": "RRIRQRPPRLPRPRPRPKNVPRP", "system": "Escherichia coli TOP10", "shrunken log2 fold change": 0.225}
{"query_sequence": "RRIRNRPPRLPRPRPRPSWDPRP", "system": "Escherichia coli TOP10", "shrunken log2 fold change": 0.039}
{"query_sequence": "RRIRHRPPRLPRPRPRPVDWPRP", "system": "Escherichia coli TOP10", "shrunken log2 fold change": 0.15}
{"query_sequence": "RRIRCRPPRLPRPRPRPCSYPRP", "system": "Escherichia coli TOP10", "shrunken log2 fold change": -0.895}
{"query_sequence": "RRIRGRPPRLPRPRPRPWYNPRP", "system": "Escherichia coli TOP10", "shrunken log2 fold change": -0.358}
{"query_sequence": "RRIRKRPPRLPRPRPRPPYQPRP", "system": "Escherichia coli TOP10", "shrunken log2 fold change": 0.0608}
{"query_sequence": "RRIRDRPPRLPRPRPRPQGYPRP", "system": "Escherichia coli TOP10", "shrunken log2 fold change": -0.0816}
{"query_sequence": "RRIRNRPPRLPRPRPRPIYNPRP", "system": "Escherichia coli TOP10", "shrunken log2 fold change": -0.642}
{"query_sequence": "RRIRFRPPRLPRPRPRPKSLPRP", "system": "Escherichia coli TOP10", "shrunken log2 fold change": 0.0638}
{"query_sequence": "RRIRARPPRLPRPRPRPETRPRP", "system": "Escherichia coli TOP10", "shrunken log2 fold change": 0.662}
{"query_sequence": "RRIRHRPPRLPRPRPRPGMDPRP", "system": "Escherichia coli TOP10", "shrunken log2 fold change": -0.0518}
{"query_sequence": "RRIRKRPPRLPRPRPRPWKVPRP", "system": "Escherichia coli TOP10", "shrunken log2 fold change": -0.000777}
{"query_sequence": "RRIRDRPPRLPRPRPRPMLDPRP", "system": "Escherichia coli TOP10", "shrunken log2 fold change": -0.0254}
{"query_sequence": "RRIRHRPPRLPRPRPRPNDIPRP", "system": "Escherichia coli TOP10", "shrunken log2 fold change": -0.0322}
{"query_sequence": "RRIRSRPPRLPRPRPRPWATPRP", "system": "Escherichia coli TOP10", "shrunken log2 fold change": -0.102}
{"query_sequence": "RRIRCRPPRLPRPRPRPANMPRP", "system": "Escherichia coli TOP10", "shrunken log2 fold change": -0.277}
{"query_sequence": "RRIRSRPPRLPRPRPRPTFKPRP", "system": "Escherichia coli TOP10", "shrunken log2 fold change": -0.0617}
{"query_sequence": "RRIRTRPPRLPRPRPRPIEKPRP", "system": "Escherichia coli TOP10", "shrunken log2 fold change": -0.478}
{"query_sequence": "RRIRGRPPRLPRPRPRPQQGPRP", "system": "Escherichia coli TOP10", "shrunken log2 fold change": 0.0431}
{"query_sequence": "RRIRGRPPRLPRPRPRPGWVPRP", "system": "Escherichia coli TOP10", "shrunken log2 fold change": 0.892}
{"query_sequence": "RRIRMRPPRLPRPRPRPTDKPRP", "system": "Escherichia coli TOP10", "shrunken log2 fold change": 0.851}
{"query_sequence": "RRIRVRPPRLPRPRPRPAWSPRP", "system": "Escherichia coli TOP10", "shrunken log2 fold change": 0.192}
{"query_sequence": "RRIRKRPPRLPRPRPRPQCCPRP", "system": "Escherichia coli TOP10", "shrunken log2 fold change": -0.101}
{"query_sequence": "RRIRGRPPRLPRPRPRPVNQPRP", "system": "Escherichia coli TOP10", "shrunken log2 fold change": 0.35}
{"query_sequence": "RRIRPRPPRLPRPRPRPGEKPRP", "system": "Escherichia coli TOP10", "shrunken log2 fold change": -0.0882}
{"query_sequence": "RRIRERPPRLPRPRPRPIQWPRP", "system": "Escherichia coli TOP10", "shrunken log2 fold change": 0.0338}
{"query_sequence": "RRIRWRPPRLPRPRPRPHVGPRP", "system": "Escherichia coli TOP10", "shrunken log2 fold change": 0.0547}
{"query_sequence": "RRIRKRPPRLPRPRPRPKTVPRP", "system": "Escherichia coli TOP10", "shrunken log2 fold change": 0.355}
{"query_sequence": "RRIRYRPPRLPRPRPRPHNEPRP", "system": "Escherichia coli TOP10", "shrunken log2 fold change": -0.675}
{"query_sequence": "RRIRKRPPRLPRPRPRPSREPRP", "system": "Escherichia coli TOP10", "shrunken log2 fold change": 0.555}
{"query_sequence": "RRIRSRPPRLPRPRPRPGLSPRP", "system": "Escherichia coli TOP10", "shrunken log2 fold change": 0.245}
